pIC50: −log10 of the molar value.
Dear all, I have gathered published pIC50 values for Aurora kinase A (Mus musculus); the list follows.

A selection of reference data follows.
> print(dat)
                                   molecule  value.observed
1  Nc1ncnn2cc(C(=O)O)c(-c3ccc(Nc4nc5ccc(C(F)(F)F)nc5[nH]4)cc3)c12          > 7.00
2  CC(C)(C)NC(=O)c1cn2ncnc(N)c2c1-c1ccc(Nc2nc3cc(F)cc(F)c3[nH]2)cc1          > 7.00
3  c1ccc2c(-c3cnc4[nH]nc(-c5nc6c(CN7CCCC7)cccc6[nH]5)c4c3)cncc2c1            5.76
4  O=C(NC1CCC(O)CC1)c1cccc2[nH]c(-c3n[nH]c4ncc(-c5cncc6ccccc56)cc34)nc12 (centres unmarked)           ~6.00
5  CCNCc1cncc(-c2cnc3[nH]nc(-c4nc5c(COC)cccc5[nH]4)c3c2)c1C            5.10
6  N#Cc1cnc2sc(C(=O)Nc3ccc(CN4CCCCC4)cc3)c3c2c1N(c1ccc(Oc2ccccc2)cc1)C(=O)N3          < 4.00
7  COCc1cccc(-c2ccc3nc(Nc4ccc(-c5c(C(=O)NCC(F)(F)F)cn6ncnc(N)c56)cc4)[nH]c3n2)c1          > 7.00

query: Please give the measured pIC50 for this molecule: CN1CCN(c2ccc3[nH]c(-c4n[nH]c5ncc(Br)cc45)nc3c2)CC1
result: ~6.00
